Biological target: Human immunodeficiency virus type 1 protease (Human immunodeficiency virus 1) (UniProt Q72874)
Assay: Inhibitory activity against HIV protease at a compound concentration of 0.5 nM in MT-4 cells
Format: cell-based
Details: MT4
Readout type: inhibition (%)

stdin: Consider the molecule Cc1cc(O)cc(C)c1OCC(=O)N[C@@H](Cc1ccccc1)C[C@H](O)[C@H](Cc1ccccc1)NC(=O)O[C@H]1COC2OCCC21 (some centres undefined) and give its measured inhibition.
stdout: 82

stdin: Form field: reported inhibition of O=C(COc1ccccc1)N[C@@H](Cc1ccccc1)C[C@H](O)[C@H](Cc1ccccc1)NC(=O)O[C@H]1COC2OCCC21 (some centres undefined)
stdout: 61

stdin: Name the recorded inhibition for Cc1cccc(C)c1OCC(=O)N[C@@H](Cc1ccccc1)C[C@H](O)[C@H](Cc1ccccc1)NC(=O)O[C@H]1COC2OCCC21 (some centres undefined) .
stdout: 87

stdin: What value of inhibition has been recorded for this entry: Cc1cc2oc(O)nc2c(C)c1OCC(=O)N[C@@H](Cc1ccccc1)C[C@H](O)[C@H](Cc1ccccc1)NC(=O)O[C@H]1COC2OCCC21 (some centres undefined)
stdout: 61

stdin: For the molecule Cc1cc(N)cc(C)c1OCC(=O)N[C@@H](Cc1ccccc1)C[C@H](O)[C@H](Cc1ccccc1)NC(=O)O[C@H]1COC2OCCC21 (some centres undefined) , what inhibition is on record?
stdout: 78

stdin: Look up inhibition: Cc1ncnc(C)c1OCC(=O)N[C@@H](Cc1ccccc1)C[C@H](O)[C@H](Cc1ccccc1)NC(=O)O[C@H]1COC2OCCC21 (some centres undefined)
stdout: 56

stdin: Name the recorded inhibition for Cc1cc2nsnc2c(C)c1OCC(=O)N[C@@H](Cc1ccccc1)C[C@H](O)[C@H](Cc1ccccc1)NC(=O)O[C@H]1COC2OCCC21 (some centres undefined) .
stdout: 71

stdin: Which value of inhibition has been reported for Cc1cc(N)cc(C)c1OCC(=O)N[C@@H](Cc1ccccc1)C[C@H](O)[C@H](Cc1ccccc1)NC(=O)O[C@@H]1COC2OCCC21 (some centres undefined) in the records?
stdout: 60

stdin: What value of inhibition has been reported for the following molecule? CNc1cc(C)c(OCC(=O)N[C@@H](Cc2ccccc2)C[C@H](O)[C@H](Cc2ccccc2)NC(=O)OC2COC3OCCC23)c(C)c1 (some centres undefined)
stdout: 64
